activation at 10 µM values for the compounds below.
biological target: human Nav1.1 (Homo sapiens); construct: host or cells: HEK293; experiment: Amplification of Nav1.1-derived voltage-dependent sodium current (Nav1.1 current), cell line stably expressing human Nav1.1, automated patch clamp; type: cell-based; details: 10 μmol/L compound; change of the area under the curve of Nav1.1 current (Test Result 1); read-out: Nav1.1 current amplification rate (%)
In your response, put the unit directly after the numeric value.

Example entries and their recorded answers appear below.
CC1CCN(c2ccc(=O)n(CC(=O)Nc3ccc4c(c3)OCC4)n2)CC1
107%
COC(=O)c1ccc(NC(=O)Cn2nc(N3CCC(C)CC3)ccc2=O)cn1
32%
O=C(Cn1nc(N2CCCC3(CCC3)C2)ccc1=O)Nc1ccc2ocnc2c1
181%
CC1CCN(c2ccc(=O)n(CC(=O)Nc3ccc4c(c3)NC(=O)CC4)n2)CC1
118%
O=C(Cn1nc(N2CCCCCC2)ccc1=O)Nc1ccnc(C(F)(F)F)c1
176%
O=C(Cn1nc(N2CCC3(CCCC3)C2)ccc1=O)Nc1ccc2scnc2c1
240%
O=C(Cn1nc(N2CCC3(CCCC3)C2)ccc1=O)Nc1ccn2ccnc2c1
129%
N#Cc1cncc(NC(=O)Cn2nc(C3=CCC(F)(F)CC3)ccc2=O)c1
37%

Req: # query: activation at 10 µM of entry O=C(Cn1nc(N2CCCC3(CCCC3)C2)ccc1=O)Nc1ccc2ocnc2c1
Resp: 108%

Req: Could you do the same for O=C(Cn1nc(N2CCC3(CCC3)CC2)ccc1=O)Nc1ccn2ccnc2c1 , please?
Resp: 205%

Req: Another compound: O=C(Cn1nc(N2CCC3(CCC3)C2)ccc1=O)N1CCN(c2ccccc2)CC1
Resp: 30%

Req: Now give it for COc1cc(N2CCC(C)(C)CC2)nn(CC(=O)Nc2ccn3ccnc3c2)c1=O too.
Resp: 74%

Req: How about Cc1cc(N2CCC3(CCC3)C2)nn(CC(=O)Nc2ccc3ocnc3c2)c1=O ?
Resp: 189%

Req: Also O=C(Cn1nc(N2CCC3(CCC3)C2)ccc1=O)Nc1ccc2ocnc2c1 ?
Resp: 227%

Req: Another compound to look at: CC1CCN(c2ccc(=O)n(CC(=O)N3CCc4cc(C(F)(F)F)ccc43)n2)CC1
Resp: 3%

// data source = patent US20220347175A1
